These data points were gathered from patent US20190284262A1.

Quick reference for Median:FITC-A among some binders
target: T1, T2+EW (Homo sapiens, UniProt A*02:01); test: flow cytometry, phage on T2 + EW peptide; secondary only 310, unstained 93
T1 construct: on the surface of T2 cells; irrelevant control peptide; also called EW peptide/HLA-A*02:01 complex on T2 cells; T2 pulsed with EW peptide
API doc: respond with a numeric literal and nothing else, no unit.

Look over these answered cases.
* EXT017-54 scFv phage clone (scFv, full-length scFv with His+HA tags; also called EXT017-54 phage) scFv: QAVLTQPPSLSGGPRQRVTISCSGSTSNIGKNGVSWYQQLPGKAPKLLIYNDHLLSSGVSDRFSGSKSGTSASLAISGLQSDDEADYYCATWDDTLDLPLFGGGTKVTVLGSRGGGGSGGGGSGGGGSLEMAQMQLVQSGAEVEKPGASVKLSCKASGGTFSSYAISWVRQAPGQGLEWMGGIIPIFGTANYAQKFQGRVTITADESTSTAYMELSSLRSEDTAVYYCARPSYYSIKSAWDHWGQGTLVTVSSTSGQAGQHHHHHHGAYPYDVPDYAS | 364
* EXT017-53 scFv phage clone (scFv, full-length scFv with His+HA tags; also called EXT017-53 phage) scFv: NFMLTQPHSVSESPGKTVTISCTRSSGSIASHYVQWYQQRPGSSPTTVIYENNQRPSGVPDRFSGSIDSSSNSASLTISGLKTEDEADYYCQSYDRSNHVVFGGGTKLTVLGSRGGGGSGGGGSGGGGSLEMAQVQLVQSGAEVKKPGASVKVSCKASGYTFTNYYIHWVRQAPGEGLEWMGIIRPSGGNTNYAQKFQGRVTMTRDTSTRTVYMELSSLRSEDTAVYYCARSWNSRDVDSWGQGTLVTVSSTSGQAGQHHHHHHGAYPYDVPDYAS | 346
* #55 (scFv, also called EXT017-55; EXT017-55 scFv phage clone) scFv (VL-linker-VH-His/HA tag): QSALTQPASVSGSPGQSITISCTGPTSDFNDYLFVSWYQQHPGKAPKLILYDVTHRPSGVSGRFSGSKSASTASLTISGLQAEDEADYFCGSKTGRTTYVFGTGTKVTVLGSRGGGGSGGGGSGGGGSLEMAQVQLVQSGAEVKKPGASVKVSCKASGYTFDNFGISWVRQAPGQGLEWMGWINTYDGYTNYVEKLQGRVTMTTDTSTGTAYMELRGLRSDDTAVYYCARSVPHQISYGDLWGQGTLVTVSSTSGQAGQHHHHHHGAYPYDVPDYAS | 391
* EXT017-27 scFv phage clone (scFv, full-length scFv with His+HA tags; also called EXT017-27 phage; phage clone #27) scFv: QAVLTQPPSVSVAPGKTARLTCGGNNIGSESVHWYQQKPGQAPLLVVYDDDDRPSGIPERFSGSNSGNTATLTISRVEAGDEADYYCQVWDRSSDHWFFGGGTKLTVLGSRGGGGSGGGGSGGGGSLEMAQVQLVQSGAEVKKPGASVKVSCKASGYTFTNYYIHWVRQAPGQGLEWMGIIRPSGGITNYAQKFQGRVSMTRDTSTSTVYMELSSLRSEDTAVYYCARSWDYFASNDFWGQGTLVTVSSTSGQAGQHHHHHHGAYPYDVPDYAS | 371

Which Median:FITC-A is reported for this binder? #34 (scFv, also called EXT017-34; EXT017-34 scFv phage clone) scFv (VL-linker-VH-His/HA tag): QSALTQPPSASGSPGQSVTISCTGTSSDVGAYNYVSWYQHYPGKAPKLMIYEVSERPSGVPDRFSGSKSGNTASLTVSGLQAEDEADYFCSSYAGSNNFVFGTGTKVTVLGSRGGGGSGGGGSGGGGSLEMAEVQLVQSGAEVKKPGSSVKVSCKASGGTFSSYAISWVRQAPGQGLEWMGRIIPILGIANYAQKFQGRVTITADKSSSTAYMALSSLTSEDTAVYYCARGGDYVESWFDPWGQGTLVTVSSTSGQAGQHHHHHHGAYPYDVPDYAS
386
